- assayName: PSAC antagonists in infected red cells, primary screen, cell-based, P. falciparum Indochina, OD700, 1 h (AID 1154)
- assaySetup: P. falciparum Indochina infected RBC osmotic lysis, higher = more signal, called active from +8 up or from −8 down
Tick condition met if z-score is 2 or greater. Tick condition not met if z-score is less than 2.

Task: For this compound, is measured z-score 2 or higher? CO[C@H]1COC(=O)[C@@H](Cc2ccccc2)NC(=O)[C@@H](C)COC(=O)CC=C[C@@H]1C
Result: condition not met

Task: Another: COc1cc(Cc2cc3c(c(CCc4ccccc4)n2)[Si](C(C)C)(C(C)C)OC3)cc(OC)c1OC
Result: condition met

Task: What about CC(c1ccccc1)C(O)C1C=CC2C(=O)N(C)C(=O)C2N1N(c1ccccc1)c1ccccc1 (centres undefined) ?
Result: condition not met

Task: Cool, now CO[C@@H]1COC(=O)[C@H](C)NC(=O)CC=C[C@@H](C)[C@H](NS(=O)(=O)c2ccc(C)cc2)COC(=O)CC=C[C@@H]1C
Result: condition not met

Task: // next record COc1ccc([Si](C)(C)[C@@H]2[C@@H](CCO)O[C@]3(C(=O)N(Cc4ccc(NC(=O)[C@H](C)O)cc4)c4ccccc43)[C@H]2C)cc1
Result: condition met

Task: Do the same for Cc1ccc(S[C@]2(C(=O)NCCCN(C)C)CC(=O)N(C3CCCCC3)[C@@H]2c2ccc(CO)cc2I)cc1 please
Result: condition met

Task: Another compound to look at: CCOC(=O)C[C@H]1[C@H](OC(=O)Cc2ccc3c(c2)OCO3)[C@@H](NC(=O)CC(C)C)c2cc(OCCCO)ccc2N1C(=O)c1ccccc1
Result: condition not met

Task: Try COc1ccc(CCN2C(=O)[C@@]3(c4ccc([N+](=O)[O-])cc4)CC(=O)N(CC45CC6CC(CC(C6)C4)C5)[C@@H]3c3ccc(CO)cc32)cc1 next.
Result: condition not met

Task: Next up: CCCC[C@H]1OB(O)C[C@H]2C1=C(COC)C[C@H]1C(=O)N(Cc3ccccc3)C(=O)[C@H]12
Result: condition not met

Task: And the next one, C=CCC(OC(C)=O)[C@@H]1[C@@H](N(Cc2cccc3ccccc23)C(=O)Cc2ccc(F)cc2)c2cc(OCCCO)ccc2N1C(=O)Cc1ccc2ccccc2c1 (some centres undefined) ?
Result: condition not met

Task: And COC(=O)C(CC#Cc1ccc2c(c1)[C@]1(C(=O)N2)[C@H](C(=O)N2CCCCCCC2)[C@H]2C(=O)O[C@H](c3ccccc3)[C@H](c3ccccc3)N2[C@@H]1c1ccc(O)cc1)C(=O)OC ?
Result: condition not met

Task: Ok, now COC(=O)[C@@]1(Cc2ccccc2N=[N+]=[N-])N=C(c2ccc(OCCCO)cc2)O[C@H]1c1ccccc1CN=[N+]=[N-]
Result: condition met

Task: Please answer likewise for COc1cc([C@@H]2N[C@H](C(=O)O)Cc3c2[nH]c2ccccc32)cc(OC)c1OC
Result: condition not met

Task: Again, but for COc1cc(CO)cc(I)c1O[C@H]1C=C(C(=O)NCCO)C[C@@H](N(CC2CCCCC2)C(=O)c2cc3ccccc3oc2=O)[C@@H]1O
Result: condition met

* * *

- assayName: osmotic lysis modulators in infected erythrocytes, primary screen, PSAC antagonist project, cell-based, P. falciparum Indochina, OD700, 3 h (AID 1156)
- assaySetup: higher = more signal, called active from +8 up or from −8 down
Calls of active or inactive are those of the source.
valueType: z-score

Task: Can you look up the measured z-score of CO[C@H]1O[C@H](CO)[C@@H](OC(=O)Nc2ccc(Oc3ccccc3)cc2)[C@H](OC(=O)Nc2ccccc2-c2ccccc2)[C@H]1OC(=O)Nc1ccccc1-c1ccccc1 for me?
Result: 0.55 (inactive)

Task: Same thing, different molecule: COc1cc2c(cc1OC)CN(C(=O)[C@H]1[C@@H]3C(=O)O[C@@H](c4ccccc4)[C@@H](c4ccccc4)N3[C@@H](c3ccccc3OCCO)[C@]13C(=O)Nc1ccc(C#CC4(O)CCCCCC4)cc13)CC2
Result: 3.25 (inactive)

Task: Similarly, O=C1O[C@@H](c2ccccc2)[C@@H](c2ccccc2)N2[C@@H](c3ccc(OCCO)cc3)[C@]3(C(=O)Nc4ccc(C#CCCO)cc43)[C@@H](C(=O)N3CCN(c4ncccn4)CC3)[C@H]12 ?
Result: -1.56 (inactive)

Task: Here is the next molecule: CO[C@@H]1COC(=O)CC=C[C@H](C)COC(=O)[C@H](Cc2ccccc2)NC(=O)CC=C[C@H]1C
Result: -0.295 (inactive)

Task: # iterate: Cc1ccc(N2C(=O)c3ccccc3[C@@H](C(=O)NCC(F)(F)F)[C@@H]2c2ccc(CO)cc2)nc1
Result: 0.827 (inactive)

Task: And C=CC[C@]1(C(=O)N2CCCCC2)N=C(c2ccc(OCCCO)cc2)O[C@H]1c1ccccc1N=[N+]=[N-] ?
Result: 4.43 (inactive)

Task: Next record, please: CO[C@H]1COC(=O)CC=C[C@@H](C)COC(=O)[C@@H](C)NC(=O)CC=C[C@@H]1C
Result: -0.768 (inactive)

* * *

- assayTarget: Follistatin-related protein 3 (Homo sapiens) (UniProt O95633)
- Sequence (O95633 whole entry, looked up): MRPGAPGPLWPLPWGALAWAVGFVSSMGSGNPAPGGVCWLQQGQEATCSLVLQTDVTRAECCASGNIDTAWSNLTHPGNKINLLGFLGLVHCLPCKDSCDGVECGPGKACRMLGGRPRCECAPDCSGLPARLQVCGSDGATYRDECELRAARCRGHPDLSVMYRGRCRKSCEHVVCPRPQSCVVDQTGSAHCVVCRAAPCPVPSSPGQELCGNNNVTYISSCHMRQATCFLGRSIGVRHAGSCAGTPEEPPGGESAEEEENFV
- assayName: FSTL3 binders on small-molecule microarrays, primary screen, biochemical, small-molecule microarray, 635 nm fluorescence (AID 1105);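 note: score merges emission near 667 nm and signal to noise per printed spot across three slides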
- assaySetup: FSTL3 binding, higher = more signal
Consider the following molecules; for each one, report its composite z-score.
// no unit string in output, number only

Task: Requested field: composite z-score. Item: CSCC[C@@H]1NC(=O)CC=C[C@@H](C)COC(=O)[C@H](CCSC)NC(=O)CC=C[C@@H](C)COC1=O
Result: 0.678

Task: Now try C=C[C@H](OC)[C@@H](OC(=O)Nc1ccc(SC)cc1)c1ccc(O)c(F)c1 .
Result: 0.264

Task: What do you get for CCOC(=O)C[C@H]1[C@H](OC(=O)c2ccccc2-c2ccccc2)[C@@H](NC(=O)c2ccc(-c3ccccc3)cc2)c2cc(OCCCO)ccc2N1C(=O)Cc1ccc(OC)cc1 ?
Result: 0.38

Task: Would you kindly repeat that for C[N+](C)(C)CCCCNC(=O)[C@H]1C[C@H]2C(=O)NCC(=O)N2[C@H]1c1cccc(OCCO)c1 ?
Result: 1.49

Task: Could you do the same for CC(C)N1CC=CC23O[C@@H]4/C=C\CCCOC(=O)C4[C@H]2C(=O)N(CCO)[C@@H]3C1=O (stereo partly drawn) , please?
Result: -0.516

Task: Now the molecule CN(C)C(=O)[C@@]1(Cc2ccccc2N=[N+]=[N-])N=C(c2ccc(OCCCO)cc2)O[C@H]1c1ccccc1CN=[N+]=[N-]
Result: 0.482

Task: Queued: O=C(CS)NCCCCCCNC(=O)[C@@H]1C[C@@H]2C(=O)N[C@@H](Cc3ccccc3)C(=O)N2[C@@H]1c1ccc(O)cc1
Result: 1.19

Task: Then CCCC=C(CCC)[C@@H](NC(=O)c1ccccc1)c1ccccc1 ?
Result: -0.501

Task: Thanks! And COCCOC(=O)N1C(=O)[C@@]2(c3cc(C#CC4(O)CCCCCC4)ccc31)[C@H](C(=O)N1CCCCCCC1)[C@H]1C(=O)O[C@H](c3ccccc3)[C@H](c3ccccc3)N1[C@@H]2c1ccc(O)cc1 ?
Result: 1.34

Task: Also check COc1ccc([Si](C)(C)[C@H]2[C@H](CCO)O[C@@]3(C(=O)N(Cc4ccc(N5CCCCC5=O)cc4)c4ccccc43)[C@@H]2C)cc1
Result: 0.55

Task: Continue with O=C1C2C=CC(C(O)Cc3ccccc3)N(Nc3ccc([N+](=O)[O-])cc3)C2C(=O)N1c1ccccc1 (stereo not drawn)
Result: 0.576

Task: What do you get for CC(C)[Si](OCC[C@H]1O[C@]2(C(=O)N(Cc3ccccc3)c3ccccc32)[C@@H](C)[C@@H]1[Si](C)(C)O)(C(C)C)C(C)C ?
Result: -0.0398

Task: Try this molecule next: CCCN1C(=O)[C@@]2(CCS(=O)(=O)c3ccccc3)N=C(c3ccc(OCCCO)cc3)O[C@H]2c2ccccc21
Result: 0.998

Task: Another molecule to look at: CC(C)(C)OC(=O)CC[C@]1(C(=O)N2CCCCC2)N=C(c2ccc(OCCCO)cc2)O[C@H]1c1ccccc1
Result: 1.37

Task: Would you kindly repeat that for CO[C@H]1COC(=O)[C@H](C)NC(=O)CC=C[C@@H](C)[C@H](NS(=O)(=O)c2ccc(C)cc2)COC(=O)[C@@H](OCc2ccccc2)C=C[C@@H]1C ?
Result: 0.512

Task: Then what about the molecule COc1ccc(CCNC(=O)[C@@]2(c3ccc([N+](=O)[O-])cc3)CC(=O)N(C(C)C)[C@@H]2c2ccc(CO)cc2)cc1 ?
Result: -1.67

Task: Can you handle CC1=C([C@H](O)CCc2ccccc2)[C@H](CO)[C@@H]2C(=O)N(Cc3ccccc3)C(=O)[C@@H]2C1 next?
Result: 0.785

Task: Would you mind doing CC(C)(C)OC(=O)CC[C@@]1(C(=O)NCc2ccccc2)N=C(c2ccc(OCCCO)cc2)O[C@@H]1c1ccccc1 as well?
Result: 0.545

Task: Follow-up entry: C=CCNC(=O)[C@H]1[C@@H]2C(=O)O[C@@H](c3ccccc3)[C@@H](c3ccccc3)N2[C@@H](c2ccc(O)cc2)[C@]12C(=O)Nc1ccc(C#CCNC(N)=O)cc12
Result: -1.03

Task: Same read-out for CCN1C(C)=C(C(=O)OC)[C@@H](c2ccccc2)N2C(=O)[C@](O)(C(=O)OC)[C@@H](c3ccccc3)C(C(=O)c3ccccc3)=C12 ?
Result: 0.363

Task: Then C=CC[C@]1(C(=O)O)N=C(c2ccc(OCCCO)cc2)O[C@H]1c1ccccc1 ?
Result: -1.02

Task: Also, O=C1O[C@H](c2ccccc2)[C@H](c2ccccc2)N2[C@H]1[C@@H](C(=O)Nc1nc3ccccc3s1)[C@]1(C(=O)Nc3ccc(C#CC4=CCCCC4)cc31)[C@H]2c1ccccc1OCCO please.
Result: 1.27

Task: Also, CCOC(=O)C1=CC[C@@H](c2ccccc2)N(S(=O)(=O)c2ccc(C)cc2)[C@H]1C please.
Result: 1.38

Task: Follow-up item: CO[C@@H]1COC(=O)[C@@H]2CCCN2C(=O)CC=C[C@@H](C)[C@H](OC)COC(=O)[C@@H]2CCCN2C(=O)CC=C[C@H]1C
Result: 1.19

Task: Subsequent entry: CCOC(=O)C[C@H]1[C@H](OC(=O)Cc2ccc3c(c2)OCO3)[C@@H](NC(=O)c2ccc3ccccc3c2)c2cc(OCCCO)ccc2N1C(=O)Cc1ccc(OC)cc1
Result: 0.439

Task: Follow-up item: COc1cc(CO)cc(I)c1O[C@H]1C=C(C(=O)NCCO)C[C@@H](N(CC2CCCCC2)C(=O)c2cc3ccccc3oc2=O)[C@@H]1O
Result: 0.797

Task: Could you do the same for CC(C)[C@H]1NC(=O)[C@@]23C(=O)N[C@@H](Cc4ccccc4)C2[C@H](C)[C@@]2(C)O[C@H]2C3/C=C/C/C=C\CNC(=O)[C@H](C)NC1=O (stereo partly drawn) , please?
Result: -0.825

Task: Do the same for COc1ccc([Si](C)(C)[C@@H]2[C@@H](CCO)O[C@]3(C(=O)N(Cc4ccccc4)c4ccccc43)[C@H]2C)cc1 please
Result: 0.174
